# Assay target: BACE1 ECD (as used in the enzyme activity assay) (UniProt P56817 22-457, limits assumed)
# Sequence (P56817 22-457 limits assumed): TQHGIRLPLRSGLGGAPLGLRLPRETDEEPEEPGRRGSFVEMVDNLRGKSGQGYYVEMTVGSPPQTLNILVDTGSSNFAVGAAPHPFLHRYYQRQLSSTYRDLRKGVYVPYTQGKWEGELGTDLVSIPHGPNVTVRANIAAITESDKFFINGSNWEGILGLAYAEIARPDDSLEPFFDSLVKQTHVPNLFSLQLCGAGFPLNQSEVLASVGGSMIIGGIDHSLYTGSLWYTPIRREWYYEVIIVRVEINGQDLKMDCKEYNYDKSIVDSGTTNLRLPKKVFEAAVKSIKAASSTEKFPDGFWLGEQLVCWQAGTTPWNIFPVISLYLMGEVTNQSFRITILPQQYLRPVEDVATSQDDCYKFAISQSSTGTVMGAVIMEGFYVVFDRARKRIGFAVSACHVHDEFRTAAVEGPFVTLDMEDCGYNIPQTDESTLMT
# Method notes: cell-based or functional assay
Measured property: EC50, FRET short substrate assay (nM)
Reply with just the number (in nM).

Request the reported EC50, FRET short substrate assay associated with 5896 (antibody, V domains shown) VH: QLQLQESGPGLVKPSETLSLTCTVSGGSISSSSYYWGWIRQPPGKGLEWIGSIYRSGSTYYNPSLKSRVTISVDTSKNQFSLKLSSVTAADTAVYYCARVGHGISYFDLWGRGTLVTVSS VL: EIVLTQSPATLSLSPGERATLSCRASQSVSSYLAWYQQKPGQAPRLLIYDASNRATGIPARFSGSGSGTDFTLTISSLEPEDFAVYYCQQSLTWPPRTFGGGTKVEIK 3.35

Also 5892 (antibody, V domains shown) VH: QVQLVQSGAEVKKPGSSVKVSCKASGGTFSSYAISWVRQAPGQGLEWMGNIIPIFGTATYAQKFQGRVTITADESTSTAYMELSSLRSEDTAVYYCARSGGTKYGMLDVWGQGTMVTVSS VL: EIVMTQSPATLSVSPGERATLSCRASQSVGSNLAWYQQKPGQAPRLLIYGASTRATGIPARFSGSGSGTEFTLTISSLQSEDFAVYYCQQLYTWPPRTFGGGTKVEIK , if possible. 16.4

Where do the numbers come from? From patent US20210206877A1.
